Structures can show the parent of a compound that is named as a salt.
A collection of molecules and their measured melting point

Here are 3 molecules together with their reported answers.
MOLECULE: COc1ccc(C2CC(C)(C)n3nc(C)c(C(=O)O)c3N2)cc1 (stereo not shown)
RESULT VALUE: 178 to 179 °C

MOLECULE: O=C(NCc1ccc(Oc2ccc(F)cc2)cc1)c1cnn2c1NC(c1ccccc1)CC2C(F)(F)F (stereo not shown)
RESULT VALUE: 169 to 172 °C

MOLECULE: CCC(CC)(NC(=O)c1cnn2c1NC(c1ccc(F)cc1F)CC2(C)C)c1ccc(C(F)(F)F)cc1 (stereo not shown)
RESULT VALUE: 198 to 199 °C

For the next question, use this molecule.
Query: Fill in: melting point of CCC(CC)(NC(=O)c1c(C)nn2c1NC(c1ccc(OC)cc1)CC2(C)C)c1ccc(C)cc1 (stereo not shown) (as salt: HCl) is ___
Response: 153 to 154 °C

====

PARAMETER MEASURED: melting point

Query: Which value of melting point has been reported for CCC(CC)(NC(=O)c1cnn2c1NC(c1ccccc1)CC2(C)C)c1ccc(C(C)(C)C)cc1 (stereo not shown) in the records?
Response: 196 to 197 °C

Query: Find the recorded melting point belonging to CC(C)(Cc1ccc2ccccc2c1)NC(=O)c1cnn2c1NC(c1ccccc1)CC2C(F)(F)F (stereo not shown) and report it.
Response: 187 to 188 °C

Query: Returns the measured melting point for the input compound. Input: CCC(NC(=O)c1cnn2c1NC(c1ccccc1)CC2C(F)(F)F)c1ccccc1Br (stereo not shown)
Response: 236 to 237 °C

Query: I'd like to know its melting point. The compound in question is COc1cccc(C2CC(C(F)(F)F)n3ncc(C(=O)NC45CC6CC(CC(C6)C4)C5)c3N2)c1 (stereo not shown)
Response: 211 to 212 °C

====

Counter-ions that a name gives are not always drawn.
Recorded melting point for the following compounds

Here is how some compounds turned out for melting point.
COMPOUND: CCC(CC)(NC(=O)c1cnn2c1NC(c1ccccc1)CC2(C)C)c1ccc(CCC(=O)OC(C)C)cc1 (stereo not shown) (as salt: HCl)
melting point: 150 to 151 °C
//
COMPOUND: O=C(c1cnn2c1NC(c1ccccc1)CC2C(F)(F)F)N1CCN(C(c2ccccc2)c2ccccc2)CC1 (stereo not shown)
melting point: 181 to 182 °C

Query: Entry CCC(CC)(NC(=O)c1cnn2c1N[C@@H](c1ccccc1)CC2(C)C)c1ccc(C(C)(C)C)cc1 (as salt: HCl) : reported melting point = ?
Response: 139 to 140 °C

Query: Look up melting point for this compound: C=CCc1ccc(C(CC)(CC)NC(=O)c2cnn3c2NC(c2ccccc2)CC3(C)C)cc1 (stereo not shown)
Response: 147 to 148 °C

Query: melting point lookup needed for CCC(=O)Oc1ccc(C(CC)(CC)NC(=O)c2cnn3c2NC(c2ccccc2)CC3(C)C)cc1 (stereo not shown) , thanks.
Response: 172 to 173 °C

Query: I would be grateful if you could share the reported melting point for CCC(CC)(NC(=O)c1cnn2c1NC(c1cccc(OC)n1)CC2(C)C)c1ccc(F)cc1 (stereo not shown) .
Response: 156 to 157 °C

Query: I would be grateful if you could share the reported melting point for C#CC1(NC(=O)c2cnn3c2NC(c2ccccc2)CC3(C)C)CCCCC1 (stereo not shown) .
Response: 201 to 202 °C
